Answer each item with its documented masking efficiency (EC50 / EC50 of parental TY21580).
SYSTEM: T1, Recombinant human CTLA4-Fc (human, UniProt P16410 36-161, limits assumed)
T1 construct: Coated on the ELISA plate at 1 ug/mL; also called its antigen; not shown: Fc part
T1 sequence (looked up): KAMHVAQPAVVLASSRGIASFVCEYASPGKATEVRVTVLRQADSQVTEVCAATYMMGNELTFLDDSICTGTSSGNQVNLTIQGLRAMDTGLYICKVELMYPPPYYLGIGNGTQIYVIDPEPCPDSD
PROTOCOL DESCRIPTION: ELISA on plate-coated recombinant human CTLA4-Fc, before protease cleavage, third block of Table 6 (set of FIG. 7C)
Give bare numbers, in fold.

# map each binder to its masking efficiency (EC50 / EC50 of parental TY21580)
1. TY22565 (antibody, V domains shown, IgG1; derived from B13197 to remove a potential glycosylation site) VH: EVQLVESGGGLVQPGGSLRLSCAASGYSISSGYHWSWIRQAPGKGLEWLARIDWDDDKYYSTSLKSRLTISRDNSKNTLYLQLNSLRAEDTAVYYCARSYVYFDYWGQGTLVTVSS VL: EVGSYPQPSSDCVPYYYACAYSGRSAGGGGSPLGLAGSGGSDIQLTQSPSSLSASVGDRVTITCRASQSVRGRFLAWYQQKPGKAPKLLIYDASNRATGIPSRFSGSGSGTDFTLTISSLQPEDFATYYCQQSSSWPPTFGQGTKVEIKR
2. TY22566 (antibody, V domains shown, IgG1; derived from B13197 to remove a potential glycosylation site) VH: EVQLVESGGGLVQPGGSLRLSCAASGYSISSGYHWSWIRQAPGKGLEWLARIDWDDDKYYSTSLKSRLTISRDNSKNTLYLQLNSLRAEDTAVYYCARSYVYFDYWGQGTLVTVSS VL: EVGSYPNPASDCVPYYYACAYSGRSAGGGGSPLGLAGSGGSDIQLTQSPSSLSASVGDRVTITCRASQSVRGRFLAWYQQKPGKAPKLLIYDASNRATGIPSRFSGSGSGTDFTLTISSLQPEDFATYYCQQSSSWPPTFGQGTKVEIKR
3. TY22563 (antibody, V domains shown, IgG1; derived from B13192 to remove a potential glycosylation site) VH: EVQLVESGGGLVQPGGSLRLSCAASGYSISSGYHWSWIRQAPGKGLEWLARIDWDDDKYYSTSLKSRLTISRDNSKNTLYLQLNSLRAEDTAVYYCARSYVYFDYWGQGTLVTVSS VL: EVGSYYSAYPACDSHYPYCQSSGRSAGGGGSPLGLAGSGGSDIQLTQSPSSLSASVGDRVTITCRASQSVRGRFLAWYQQKPGKAPKLLIYDASNRATGIPSRFSGSGSGTDFTLTISSLQPEDFATYYCQQSSSWPPTFGQGTKVEIKR
4. TY22564 (antibody, V domains shown, IgG1; derived from B13192 to remove a potential glycosylation site) VH: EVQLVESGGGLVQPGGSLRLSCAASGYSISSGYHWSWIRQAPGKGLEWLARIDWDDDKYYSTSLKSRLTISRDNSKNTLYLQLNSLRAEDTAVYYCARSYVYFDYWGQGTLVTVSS VL: EVGSYYSAYPACDSHYPYCNSAGRSAGGGGSPLGLAGSGGSDIQLTQSPSSLSASVGDRVTITCRASQSVRGRFLAWYQQKPGKAPKLLIYDASNRATGIPSRFSGSGSGTDFTLTISSLQPEDFATYYCQQSSSWPPTFGQGTKVEIKR

*A*
1. 632
2. 489
3. 144
4. 117

The measurements presented in this section are drawn from patent US20210207126A1.
